Reference source for all entries: PubChem BioAssay AID1963962

Tested on: 967376-340-R-J2-PDC multicell spheroid viability;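 also: luminescence used as surrogate of cell viability; spheroids exposed to agents for 7 days before read-out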
Assay: Anticancer human tumor 967376-340-R-J2-PDC patient-derived colon adenocarcinoma cell line growth inhibition [PI3K]
Details: second compound 1 µM; first compound 0.1 µM; active compounds read low
Excerpt: Combinatorial screen of targeted agents with the PI3K inhibitors inavolisib, alpelisib, duvelisib, and copanlisib in multi-cell type tumor spheroids A high-throughput screen of multi-cell type tumor spheroids was designed to identify active combinations of targeted small molecules and PI3K pathway inhibitors. […] Compounds. […] If the clinical Cmax for an agent had not been determined, the highest concentration tested was 10 microM. […]

# Compound, Unit info, viability, T/C
rows = [
    ("CC1(C)CCC(Nc2ncc(C(F)(F)F)c(-c3c[nH]c4c(P(C)(C)=O)c(C#N)ccc34)n2)CN1 (stereo not given) + CC(Nc1ncnc2nc[nH]c12)c1cc2cccc(Cl)c2c(=O)n1-c1ccccc1", "%", 93.5),
    ("CC(Cn1ccc(-c2ccc(C#N)c(Cl)c2)n1)NC(=O)c1cc(C(C)O)[nH]n1 (stereo not given) + CC(Nc1ccc2c(c1)OCCn1cc(N3C(=O)OCC3C(F)F)nc1-2)C(N)=O", "%", 54),
    ("Cn1nccc1Nc1nccc(-c2ccn(C(CO)c3ccc(Cl)c(F)c3)c(=O)c2)n1 (stereo not given) + COc1c(OCCCN2CCOCC2)ccc2c3n(c(=NC(=O)c4cnc(N)nc4)nc12)CCN3", "%", 31),
    ("C[C@@H](NC(=O)c1ncnc(N)c1Cl)c1ncc(C(=O)Nc2cc(C(F)(F)F)c(Cl)cn2)s1 + Cc1nc(NC(=O)N2CCCC2C(N)=O)sc1-c1ccnc(C(C)(C)C(F)(F)F)c1", "%", 80.4),
    ("CC(=O)c1c(C)c2cnc(Nc3ccc(N4CCNCC4)cn3)nc2n(C2CCCC2)c1=O + COc1c(OCCCN2CCOCC2)ccc2c3n(c(=NC(=O)c4cnc(N)nc4)nc12)CCN3", "%", 27.9),
]
